B1: FAM107A (parent)
chain: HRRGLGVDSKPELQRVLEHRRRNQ

- Variants of: B1
- Assay Text: protein stability index of a GFP-peptide fusion (GPS, HEK-293T) (PSI 1-6); higher = more stable;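 also: lentivirally expressed fusions sorted by FACS into six bins by GFP to DsRed ratio, PSI derived from sequencing read proportions per bin multiplied by bin number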
- Study Conditions: c terminus: a fixed tail appended
Below: a set of entries, each annotated with reported protein stability index.
Write no unit; give the number alone.

Below are worked cases with known answers.
HYRGLGVDSKPELQRVLEHRRRNQ : 5.39
HRRGLGVDSKPELTRVLEHRRRNQ : 4.28
HRAGLGVDSKPELQRVLEHRRRNQ : 4.9

Task: If you can, please state the reported protein stability index value of HRRGLGVDSKPELQRRLEHRRRNQ .
Result: 4.67

Task: One more variant: HRRGLGVCSKPELQRVLEHRRRNQ
Result: 3.08

Task: One more variant: HRRGLGVDSKPELQRVLECRRRNQ
Result: 2.01

Task: One more variant: HRRGLGVDSQPELQRVLEHRRRNQ
Result: 4.92

Task: One more variant: HRRGLGVDSDPELQRVLEHRRRNQ
Result: 4.89
